- Assayed target: Human c20S proteasome β2 subunit (Homo sapiens, UniProt P49720+Q99436)
- Construct: purchased Bio-Techne
- Protocol summary: In vitro proteasome assay, z-VLR-amc substrate
- Format: biochemical
Assay readout: IC50

>>> print(df.to_string())
                                   molecule  assay_readout  measurement
0  COc1ccc(CC(NC(=O)C(C)NC(=O)CN2CCOCC2)C(=O)NC(Cc2ccc(-c3ccccc3)cc2)C(=O)C2(C)CO2)cc1 (stereo not shown) [compound 3]           IC50     0.271 µM

###

- Assayed target: Human c20S proteasome β2 subunit (Homo sapiens, UniProt P49720+Q99436)
- Construct: purchased Bio-Techne
- Protocol summary: In vitro proteasome assay, z-VLR-amc substrate
- Type: biochemical
- Assay conditions: purified human c20S with PA28α, mean ± SD; read-out: Human c20S proteasome inhibition of β2 subunit (IC50)
Assay readout: IC50

In [3]: df
Out[3]:
                                   molecule  measurement
0  CSc1ccc(CC(=O)NC(C(=O)NC(Cc2c(F)c(F)c(F)c(F)c2F)C(=O)N[C@@H](CC(C)C)C(=O)[C@@]2(C)CO2)C(C)C)cc1 (stereo partly drawn)    0.0647 µM
1  CCCCCC(=O)N[C@@H](CO)C(=O)N[C@@H](CCCC)C(=O)N[C@@H](Cc1ccccc1)C(=O)[C@@]1(C)CO1      2.16 µM
2  C[C@@]12OC(=O)[C@]1([C@@H](O)[C@@H]1C=CCCC1)NC(=O)[C@@H]2CCCl [18 (MZB), marizomib, reference compound]    0.0467 µM

###

- Assayed target: T. vaginalis Tv20S proteasome β5 subunit (Trichomonas vaginalis, UniProt A2DD57+A2F716)
- Sequence (A2DD57 entry or part of it): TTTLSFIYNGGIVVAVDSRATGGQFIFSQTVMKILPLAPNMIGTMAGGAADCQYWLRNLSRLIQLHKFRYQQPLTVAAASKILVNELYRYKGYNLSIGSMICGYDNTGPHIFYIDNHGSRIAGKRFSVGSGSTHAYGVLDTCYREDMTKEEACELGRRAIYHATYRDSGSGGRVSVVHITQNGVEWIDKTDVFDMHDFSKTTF
- Sequence (A2F716 entry or part of it): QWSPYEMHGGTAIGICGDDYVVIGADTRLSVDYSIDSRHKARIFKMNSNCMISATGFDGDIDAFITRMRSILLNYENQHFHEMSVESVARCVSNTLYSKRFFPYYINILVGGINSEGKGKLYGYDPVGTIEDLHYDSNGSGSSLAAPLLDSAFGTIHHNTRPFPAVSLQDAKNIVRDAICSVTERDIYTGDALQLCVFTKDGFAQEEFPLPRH
- Protocol summary: biochemical
- Assay type: biochemical
- Assay conditions: read-out: Tv20S proteasome inhibition of β5 subunit (IC50)
Assay readout: IC50

                                   molecule  measurement
0  CC(C)C[C@H](NC(=O)[C@H](Cc1ccccc1)NC(=O)c1cnccn1)B(O)O [43 (BTZ), bortezomib, reference compound]      21.6 nM

###

- Assayed target: Human c20S proteasome β2 subunit (Homo sapiens, UniProt P49720+Q99436)
- Construct: purchased Bio-Techne
- Protocol summary: In vitro proteasome assay, z-VLR-amc substrate
- Format: biochemical
- Assay conditions: purified human c20S with PA28α, mean ± SD; read-out: Human c20S proteasome inhibition of β2 subunit (IC50)
pIC50: −log10 of the molar value.

Molecule	pIC50
CCCCCC(=O)N[C@H](C(=O)N[C@@H](CCS(C)(=O)=O)C(=O)N[C@@H](CC(C)C)C(=O)[C@@]1(C)CO1)C(C)C [38 (CPB), carmaphycin B, reference compound]	7.84
CCCCC(=O)N[C@@H](Cc1ccc(O)cc1)C(=O)N[C@@H](CCCC)C(=O)N[C@@H](Cc1ccccc1)C(=O)[C@@]1(C)CO1	7.17
COc1ccc(C[C@H](NC(=O)[C@H](C)NC(=O)C2=C(C)c3ccccc3C2)C(=O)N[C@@H](Cc2ccccc2)C(=O)[C@@]2(C)CO2)cc1	5.77

###

- Assayed target: Human c20S proteasome β5 subunit (Homo sapiens, UniProt P20618+P28074)
- Construct: purchased Bio-Techne
- Protocol summary: In vitro proteasome assay, suc-LLVY-amc substrate
- Assay type: biochemical
- Assay conditions: purified human c20S with PA28α, mean ± SD; read-out: Human c20S proteasome inhibition of β5 subunit (IC50)
pIC50: −log10 of the molar value.
Recorded pIC50 by entry

Molecule	pIC50
COc1ccc(C[C@H](NC(=O)[C@H](C)NC(=O)C2=C(C)c3ccccc3C2)C(=O)N[C@@H](Cc2ccccc2)C(=O)[C@@]2(C)CO2)cc1 [compound 4]	7.96
COc1ccc(C[C@H](NC(=O)[C@H](C)NC(=O)C2=C(C)c3ccccc3C2)C(=O)N[C@@H](Cc2ccc(-c3ccccc3)cc2)C(=O)[C@@]2(C)CO2)cc1 [compound 20]	7.40
CCCC[C@H](NC(=O)[C@H](CC(=O)N1CCCC1)NC(=O)[C@H](Cc1ccc(OC)cc1)N1CCCC1=O)C(=O)N[C@@H](Cc1ccc(F)cc1F)C(=O)[C@@]1(C)CO1 [compound 45]	6.00
CCCCCC(=O)NC(CC(=O)NC(CCCC)C(=O)NC(Cc1ccccc1)C(=O)C1(C)CO1)CC(=O)OC(C)(C)C (stereo not drawn) [compound 8]	5.39
CSc1ccc(CC(=O)NC(C(=O)NC(Cc2c(F)c(F)c(F)c(F)c2F)C(=O)N[C@@H](CC(C)C)C(=O)[C@@]2(C)CO2)C(C)C)cc1 (stereo partly drawn) [compound 50]	7.86
CCCCC(=O)N[C@@H](Cc1ccc(O)cc1)C(=O)N[C@@H](CCCC)C(=O)N[C@@H](Cc1ccccc1)C(=O)[C@@]1(C)CO1 [compound 5]	8.97

From: paper PMC12691669
